system.tested: SARS-COV-2 RBD extracellular domain expressed with a C-terminal mouse IgG2a Fc (SARS-CoV-2)
experimental.protocol: Biacore SPR, mAb captured on anti-hFc, 37 C
Please go through the items and note down their kon.
Answers are plain numbers, in M⁻¹ s⁻¹.

Example entries and their recorded answers appear below.
mAb14315 (antibody, V domains shown) VH: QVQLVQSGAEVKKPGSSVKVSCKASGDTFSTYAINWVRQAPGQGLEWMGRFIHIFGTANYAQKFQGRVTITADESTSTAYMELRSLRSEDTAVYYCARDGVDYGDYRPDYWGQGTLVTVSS VL: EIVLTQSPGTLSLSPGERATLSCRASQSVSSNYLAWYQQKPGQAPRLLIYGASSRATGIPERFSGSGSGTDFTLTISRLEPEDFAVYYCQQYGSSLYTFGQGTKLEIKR    877000
mAb14284 (antibody, V domains shown) VH: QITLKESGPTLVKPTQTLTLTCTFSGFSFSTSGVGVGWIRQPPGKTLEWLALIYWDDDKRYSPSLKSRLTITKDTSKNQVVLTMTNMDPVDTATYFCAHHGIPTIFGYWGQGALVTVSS VL: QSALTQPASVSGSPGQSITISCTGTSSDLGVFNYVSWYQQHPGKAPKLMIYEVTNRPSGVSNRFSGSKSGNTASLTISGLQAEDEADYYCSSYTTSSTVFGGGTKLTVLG    830000
mAb14230 (antibody, V domains shown) VH: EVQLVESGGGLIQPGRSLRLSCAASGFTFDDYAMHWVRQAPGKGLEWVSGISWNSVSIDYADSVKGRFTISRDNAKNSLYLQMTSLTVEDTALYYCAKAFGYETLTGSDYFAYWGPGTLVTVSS VL: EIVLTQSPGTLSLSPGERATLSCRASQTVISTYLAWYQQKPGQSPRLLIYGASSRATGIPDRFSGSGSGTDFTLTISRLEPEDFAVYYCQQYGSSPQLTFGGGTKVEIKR    1.82e+06
mAb14256 (antibody, V domains shown) VH: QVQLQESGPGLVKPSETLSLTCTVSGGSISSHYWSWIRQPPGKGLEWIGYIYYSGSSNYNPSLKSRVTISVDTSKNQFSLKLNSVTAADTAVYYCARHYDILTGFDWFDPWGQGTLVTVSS VL: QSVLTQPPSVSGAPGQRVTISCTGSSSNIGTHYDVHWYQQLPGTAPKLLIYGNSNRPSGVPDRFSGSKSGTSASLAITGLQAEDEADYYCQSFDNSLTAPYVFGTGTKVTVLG    1.78e+06

Provide kon for all items below, preserving their order.
1. mAb14255 (antibody, V domains shown) VH: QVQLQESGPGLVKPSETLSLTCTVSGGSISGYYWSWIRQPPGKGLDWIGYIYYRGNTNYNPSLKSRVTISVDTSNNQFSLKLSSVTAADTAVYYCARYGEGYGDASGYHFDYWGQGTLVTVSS VL: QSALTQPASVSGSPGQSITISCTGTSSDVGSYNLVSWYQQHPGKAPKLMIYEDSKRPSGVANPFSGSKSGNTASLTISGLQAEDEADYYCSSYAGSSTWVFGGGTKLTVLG
2. mAb15166 (antibody, V domains shown) VH: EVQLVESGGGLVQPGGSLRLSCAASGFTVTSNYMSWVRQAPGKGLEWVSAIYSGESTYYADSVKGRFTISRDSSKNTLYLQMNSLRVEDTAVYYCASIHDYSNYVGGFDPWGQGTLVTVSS VL: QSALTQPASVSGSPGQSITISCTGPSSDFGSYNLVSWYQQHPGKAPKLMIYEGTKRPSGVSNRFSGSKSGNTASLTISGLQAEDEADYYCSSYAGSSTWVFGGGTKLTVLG

1: 2.12e+06; 2: 781000
